For each record, write down the corresponding IP accumulation with GαΔ6qi4myr, NPR-1.
Biological target: NPR-1 (Caenorhabditis elegans)
Sequence (Q18534 whole entry): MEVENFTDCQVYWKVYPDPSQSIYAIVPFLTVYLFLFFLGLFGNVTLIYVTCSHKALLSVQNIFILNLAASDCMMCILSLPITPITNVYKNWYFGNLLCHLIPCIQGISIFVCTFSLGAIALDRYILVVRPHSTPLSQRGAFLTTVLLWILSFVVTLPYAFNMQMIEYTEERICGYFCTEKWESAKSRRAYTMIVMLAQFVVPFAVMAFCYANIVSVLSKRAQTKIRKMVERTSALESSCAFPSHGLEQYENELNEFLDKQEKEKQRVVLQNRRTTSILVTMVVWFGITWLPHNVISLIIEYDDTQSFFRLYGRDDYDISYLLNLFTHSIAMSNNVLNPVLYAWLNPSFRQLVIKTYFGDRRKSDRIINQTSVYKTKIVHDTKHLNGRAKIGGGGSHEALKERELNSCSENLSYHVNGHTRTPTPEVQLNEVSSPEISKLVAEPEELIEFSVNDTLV
Experiment: IP accumulation assay, chimeric GαΔ6qi4myr, NPR-1
Type: cell-based, C. elegans
Design: expressed in transfected cells; host or cells: HEK293
Conditions: 0.1 µM peptide (Table S8), 1 h, HBSS + 20 mM LiCl; HEK293 receptor + GαΔ6qi4myr; HTRF IP-One; mean of >=3 independent experiments

Input line: Please indicate recorded IP accumulation with GαΔ6qi4myr, NPR-1 of AGSDPNFLRF-NH2 [FLP-1-2, C. elegans FMRFamide-like peptide, C-terminally amidated, synthesized by SPPS] measured with NPR-1 (Caenorhabditis elegans).
Output line: 1.03 x-fold of basal

Input line: Please indicate recorded IP accumulation with GαΔ6qi4myr, NPR-1 of NPENDTPFGTMRF-NH2 [FLP-3-4, C. elegans FMRFamide-like peptide, C-terminally amidated, synthesized by SPPS] measured with NPR-1 (Caenorhabditis elegans).
Output line: 0.98 x-fold of basal

Input line: Please indicate recorded IP accumulation with GαΔ6qi4myr, NPR-1 of ASPSFIRF-NH2 [FLP-4-2, C. elegans FMRFamide-like peptide, C-terminally amidated, synthesized by SPPS] measured with NPR-1 (Caenorhabditis elegans).
Output line: 0.83 x-fold of basal

Input line: Please indicate recorded IP accumulation with GαΔ6qi4myr, NPR-1 of APKPKFIRF-NH2 [FLP-5-1, C. elegans FMRFamide-like peptide, C-terminally amidated, synthesized by SPPS] measured with NPR-1 (Caenorhabditis elegans).
Output line: 0.88 x-fold of basal

* * *

For each record, write down the corresponding cAMP, x-fold of forskolin (mean), NPR-3.
Target: NPR-3 (Caenorhabditis elegans)
Construct: expressed in transfected cells; host or cells: HEK293
Sequence (P90745 whole entry): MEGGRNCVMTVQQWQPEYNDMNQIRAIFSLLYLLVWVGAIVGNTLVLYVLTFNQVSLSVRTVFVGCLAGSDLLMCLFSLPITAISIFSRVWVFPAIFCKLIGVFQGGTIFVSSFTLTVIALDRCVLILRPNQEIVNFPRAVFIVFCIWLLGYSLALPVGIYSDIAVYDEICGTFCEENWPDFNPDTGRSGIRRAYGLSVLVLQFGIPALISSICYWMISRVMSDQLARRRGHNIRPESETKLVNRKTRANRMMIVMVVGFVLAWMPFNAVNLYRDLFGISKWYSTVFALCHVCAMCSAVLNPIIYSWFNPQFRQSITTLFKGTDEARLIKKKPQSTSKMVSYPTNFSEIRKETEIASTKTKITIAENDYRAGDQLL
Experiment: cAMP reporter gene assay, Gi/o (inhibition of forskolin-induced cAMP), NPR-3
Assay type: cell-based, C. elegans
Details: 0.1 µM peptide; 1 µM forskolin set to 1.00; transiently transfected HEK293 cells; mean of at least three independent experiments

Input line: Query cAMP, x-fold of forskolin (mean), NPR-3 for APKPKFIRF-NH2 [FLP-5-1, C. elegans FMRFamide-like peptide, C-terminally amidated, synthesized by SPPS]
Output line: 0.66 x-fold of forskolin

Input line: Query cAMP, x-fold of forskolin (mean), NPR-3 for APLEGFEDMSGFLRTIDGIQKPRF-NH2 [FLP-33, NPY-like C. elegans FLP with C-terminal RxRF/Ya signature]
Output line: 0.77 x-fold of forskolin

Input line: Query cAMP, x-fold of forskolin (mean), NPR-3 for AGSDPNFLRF-NH2 [FLP-1-2, C. elegans FMRFamide-like peptide, C-terminally amidated, synthesized by SPPS]
Output line: 0.87 x-fold of forskolin

* * *

For each record, write down the corresponding IP accumulation, x-fold of basal (mean), PrRPR#.
Target: PrRPR (Homo sapiens, UniProt P49683)
Construct: expressed in transfected cells; host or cells: HEK293, transient
Sequence (P49683 1-370): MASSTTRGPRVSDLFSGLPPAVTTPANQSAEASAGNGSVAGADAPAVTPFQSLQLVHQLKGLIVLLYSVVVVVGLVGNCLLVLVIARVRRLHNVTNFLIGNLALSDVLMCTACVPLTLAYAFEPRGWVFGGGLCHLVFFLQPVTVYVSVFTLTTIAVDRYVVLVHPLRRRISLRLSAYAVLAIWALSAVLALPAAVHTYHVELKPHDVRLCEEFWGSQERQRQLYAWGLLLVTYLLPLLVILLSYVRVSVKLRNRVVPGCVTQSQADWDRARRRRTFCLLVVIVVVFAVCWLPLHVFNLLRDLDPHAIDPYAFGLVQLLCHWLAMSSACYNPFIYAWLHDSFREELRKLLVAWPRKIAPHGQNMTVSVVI
Assay: IP accumulation assay, endogenous Gαq coupling, PrRPR
Assay type: cell-based
Details: 0.1 µM peptide, transiently transfected HEK293 cells, mean of at least three independent experiments

Input line: Query IP accumulation, x-fold of basal (mean), PrRPR# for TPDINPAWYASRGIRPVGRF-NH2 [PrRP20, human prolactin-releasing peptide, 20 residues, reference compound]
Output line: 26.01 x-fold of basal

Input line: Query IP accumulation, x-fold of basal (mean), PrRPR# for APKPKFIRF-NH2 [FLP-5-1, C. elegans FMRFamide-like peptide, C-terminally amidated, synthesized by SPPS]
Output line: 1.20 x-fold of basal

Input line: Query IP accumulation, x-fold of basal (mean), PrRPR# for TSGPLGNLAEELNGYSRKKGGFSFRF-NH2 [QRFP26, human pyroglutamylated RFamide peptide, 26 residues, reference compound]
Output line: 1.06 x-fold of basal

Data origin, for the record: paper PMC6751662
